meta.source: ChEMBL document CHEMBL1152403

# Organism: Rattus norvegicus
# assayExplanation: Selectivity ratio of Ki for delta opioid receptor in rat brain membrane to Ki for mu opioid receptor in rat brain membrane
# Type: cell membranes
Where a SMILES comes first, the peptide text is derived from it. [ ]: non-standard residue; d: D form. Dha = C=C(N)C(=O)O
reportedEndpoint: Ratio Ki

In the examples that follow, each entry is paired with its recorded Ratio Ki.
NC(=O)[C@H](Cc1ccccc1)NC(=O)[C@H](Cc1c[nH]c2ccccc12)NC(=O)C1CN(C(=O)[C@@H](N)Cc2ccc(O)cc2)C1 ... 1.2
C=C(NC(=O)[C@@H](N)Cc1ccc(O)cc1)C(=O)N[C@@H](Cc1ccccc1)C(=O)N[C@@H](Cc1ccccc1)C(N)=O (H-Y[Dha]FF-NH2) ... 21
NC(=O)[C@H](Cc1ccccc1)NC(=O)[C@H](Cc1ccccc1)NC(=O)C1CN(C(=O)[C@@H](N)Cc2ccc(O)cc2)C1 ... 32
NC(=O)[C@H](Cc1ccccc1)NC(=O)[C@H](Cc1c[nH]c2ccccc12)NC(=O)[C@@H]1CCN1C(=O)[C@@H](N)Cc1ccc(O)cc1 ... 1500

Requested read-out: Ratio Ki. Entry: NC(=O)[C@H](Cc1ccccc1)NC(=O)[C@H](Cc1ccccc1)NC(=O)[C@@H]1CCN1C(=O)[C@@H](N)Cc1ccc(O)cc1 920
